B1: Pistol ribozyme (parent)
chain: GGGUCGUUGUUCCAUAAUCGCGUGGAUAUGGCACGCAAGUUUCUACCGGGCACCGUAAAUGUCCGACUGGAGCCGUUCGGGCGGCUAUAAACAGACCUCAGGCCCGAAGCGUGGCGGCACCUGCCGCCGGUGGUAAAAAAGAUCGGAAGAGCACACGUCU

Variants of: B1
method-description: aptazyme ON/OFF ratio, guanine; higher = stronger switching; co-transcriptional cleavage with and without guanine
// aptazyme ON/OFF ratio lookup, one value per entry

Worked examples follow.
- mutant-code: "U8C G9U U10C C12G C13A"
  aptazyme ON/OFF ratio: 1.12
- mutant-code: "U7C G9C U10C U11C C12U C13U"
  aptazyme ON/OFF ratio: 1.01
- mutant-code: "U8G G9A U10G C13G"
  aptazyme ON/OFF ratio: 1.34
- mutant-code: "U7A U8G G9C U10G C12A C13A"
  aptazyme ON/OFF ratio: 1.31
- mutant-code: "U7A U8C U10C U11C C12U"
  aptazyme ON/OFF ratio: 1.04

Consider now this further variant.
Req: // returns reported aptazyme ON/OFF ratio for input U7C G9U U10A U11A C12U C13A
Resp: 1.27
